# protocol_description: method code SF, from Hansch, C. & Leo, A. (1987). Log P database [Dataset]. Pomona College Medicinal Chemistry Project.
quantity_kind: logP
Note: the reply should be a number with no unit written.

# compound_structure_string, readout_value
records = [
    ("Cc1cccc(C(N)=O)c1", 1.18),
]

Consider CC(=O)Oc1ccccc1[N+](=O)[O-] . Its measured logP is 1.55

Recorded logP (compound CCOP(=O)(OCC)Oc1ccc(SC)c(Cl)c1 ): 3.48

Entry CC(=O)c1ccc2ccccn12 ; logP = 2.06

###

# protocol_description: method code SF, from Hansch, C. & Leo, A. (1987). Log P database [Dataset]. Pomona College Medicinal Chemistry Project.
# setup_conditions: pH 12.0
quantity_kind: logD

Solved cases (4 shown):
# molecule, logD
data = [
    ("CN(C)/N=N/c1ccccc1CO", 1.73),
    ("CCCC1CC(C(=O)NC(C(C)Cl)C2OC(SC)C(O)C(O)C2O)N(CC)C1 (stereo not given)", 2.51),
    ("CCCCC1CC(C(=O)NC(C(C)O)C2OC(SC)C(O)C(O)C2O)N(CC)C1 (stereo not given)", 1.76),
    ("CCC[C@@H]1C[C@@H](C(=O)N[C@@H]([C@H]2O[C@H](SC)[C@H](O)[C@@H](O)[C@H]2O)[C@@H](C)O)N(CC)C1", 1.02),
]

# next molecule below
Value of logD reported for the molecule CCC[C@@H]1C[C@@H](C(=O)N[C@@H]([C@H]2O[C@H](SCC)[C@H](O)[C@@H](O)[C@H]2O)[C@@H](C)O)N(CC)C1 is 1.91
